tested on: TAB109; assay: qHTS profiling for inhibitors of Plasmodium falciparum proliferation (AID 504749); note: nearly all actives have a fitted effect of over 60% in size; note: potency is the fitted concentration of half-maximal effect; conditions: P. falciparum in erythrocytes, SYBR Green DNA, 72 h; series mostly up to 28.7 µM
Inconclusive results are not listed. Active and inactive are the calls of the source. Calls come from the whole dose curve; as a rule, active = well fitted inhibition curve with a large enough effect; inconclusive = small, poorly fitted or top-dose-only effect; inactive = flat fitted curve, though single readings scatter.

compound: O=[N+]([O-])c1cc([As](=O)(O)O)ccc1O
Potency: 3.16 µM (active)
--
compound: CN1CCN(C(=O)O[C@H]2c3nccnc3C(=O)N2c2ccc(Cl)cn2)CC1
Potency: inactive
--
compound: CN(C)CCc1ccc(O)cc1
Potency: inactive
--
compound: C=C1CC[C@@]2(O)[C@H]3Cc4ccc(O)c5c4[C@@]2(CCN3CC2CC2)[C@H]1O5
Potency: inactive
--
compound: c1ccc2c(c1)OCC(C1=NCCN1)O2 (stereo not given)
Potency: inactive
--
compound: CC[N+](CC)(CC)CC
Potency: inactive
--
compound: CCOC(=O)C1(c2ccccc2)CCN(CCC(C#N)(c2ccccc2)c2ccccc2)CC1
Potency: 3.16 µM (active)
--
compound: O=C(O)c1ccc2[nH]cc(CCCCN3CC=C(c4ccccc4)CC3)c2c1
Potency: inactive
--
compound: Oc1cccc2cccnc12
Potency: inactive
--
compound: c1ccc(C2CC2)c(OCC2=NCCN2)c1
Potency: inactive
--
compound: Cc1ccc(S(=O)(=O)N[C@@H](CCCCN)C(=O)CCl)cc1
Potency: 11.2 µM (active)
--
compound: Oc1ccccc1-c1ccccc1
Potency: inactive
--
compound: Nc1ccncc1
Potency: inactive
--
compound: Fc1ccc(C(OCCN2CCN(CCCc3ccccc3)CC2)c2ccc(F)cc2)cc1
Potency: 7.94 µM (active)
--
compound: O=c1[nH]c2ccccc2n1C1CCN(CCCC(c2ccc(F)cc2)c2ccc(F)cc2)CC1
Potency: inactive
--
compound: CCN(CC)CCOC(=O)C(O)(c1ccccc1)c1ccccc1
Potency: inactive
--
compound: CC1NCCOC1c1ccccc1 (stereo not given)
Potency: inactive
--
compound: O=c1[nH]c2ccccc2n1CCCN1CCC(n2c(=O)[nH]c3cc(Cl)ccc32)CC1
Potency: 5.01 µM (active)
--
compound: CC(=O)Nc1cc([As](=O)(O)O)ccc1O
Potency: inactive
--
compound: CN1C[C@H](CNC(=O)OCc2ccccc2)C[C@@H]2c3cccc4c3c(cn4C)C[C@H]21
Potency: 5.62 µM (active)
--
compound: CCC(C(N)=O)N1CCCC1=O (stereo not given)
Potency: inactive
--
compound: CC(C)CC(N(C)C)C1(c2ccc(Cl)cc2)CCC1 (stereo not given)
Potency: inactive
--
compound: CCC(COC(=O)c1cc(OC)c(OC)c(OC)c1)(c1ccccc1)N(C)C (stereo not given)
Potency: inactive
--
compound: COc1ccc(C(=O)c2c(C)n(CCN3CCOCC3)c3ccccc23)cc1
Potency: inactive
--
compound: COc1ccc(C(CN(C)C)C2(O)CCCCC2)cc1 (stereo not given)
Potency: inactive
